These measurements were taken from patent US6737383B1.

- Tested on: pigweed
- experimental details: Test B pre/postemergence pigweed
- Assay type: in vivo, Amaranthus retroflexus
- experimental conditions: Preemergence, Rate 62 g/ha; scale of 0 to 10 where 0 is no effect and 10 is complete control
quantity name: Redroot pigweed plant response rating
// return just the number, without any unit appended

Before answering, review these 4 worked examples.
CC(C)N(C(=O)n1oc(=O)n(N(C)C)c1=O)c1ccccc1 :: 6
CC(C)N(C(=O)n1oc(=O)n(CC2CCCCO2)c1=O)c1ccccc1 (centres unmarked) :: 6
C#CCn1c(=O)on(C(=O)N(c2ccc(F)cc2)C(C)C)c1=O :: 9
Cc1ccccc1-n1c(=O)on(C(=O)N(c2ccc(Cl)cc2Cl)C(C)C)c1=O :: 0

Now look at this entry.
Tell me Redroot pigweed plant response rating reported for `COC(Cn1c(=O)on(C(=O)N(c2ccc(F)cc2)C(C)C)c1=O)OC`
2

* * *

- Tested on: bedstraw
- experimental details: Test B pre/postemergence bedstraw
- Assay type: in vivo, Galium aparine
- experimental conditions: Rate 62 g/ha, Postemergence; scale 0 to 10 (0 no effect, 10 complete control)
quantity name: Bedstraw plant response rating
// return just the number, without any unit appended

C=CCn1c(=O)on(C(=O)N(c2ccc(Cl)cc2)C(C)C2CC2)c1=O (stereo not shown) [Compound 325] :: 2

Tell me Bedstraw plant response rating reported for CC(C)N(C(=O)n1oc(=O)n(-c2ccc3ccccc3c2)c1=O)c1ccc(Cl)cc1 [Compound 333]
0

Tell me Bedstraw plant response rating reported for CC(C)N(C(=O)n1oc(=O)n(C(C)C)c1=O)c1cnccn1 [Compound 296]
0

Tell me Bedstraw plant response rating reported for COC(Cn1c(=O)on(C(=O)N(c2ccc(F)cc2)C(C)C)c1=O)OC [Compound 317]
2

* * *

- Test system: bedstraw
- experimental details: Test B pre/postemergence bedstraw
- Type: in vivo, Galium aparine
- experimental conditions: Preemergence, Rate 125 g/ha
quantity name: Bedstraw plant response rating (0 to 10 scale)
// return just the number, without any unit appended

Cc1nsc(Cl)c1Cn1c(=O)on(C(=O)N(c2ccccc2)C(C)C)c1=O [Compound 374] :: 0
CC(C)N(C(=O)n1oc(=O)n(-c2ccc3ccccc3c2)c1=O)c1ccc(Cl)cc1 [Compound 333] :: 0
CC(C)n1c(=O)on(C(=O)N(c2ccc(Cl)cc2Cl)C2CCC2)c1=O [Compound 319] :: 0

Tell me Bedstraw plant response rating (0 to 10 scale) reported for CCC(CC)n1c(=O)on(C(=O)N(c2ccccc2)C(C)C)c1=O [Compound 354]
0

* * *

- Test system: velvetleaf
- experimental details: Test B pre/postemergence velvetleaf
- Type: in vivo, Abutilon theophrasti
- experimental conditions: Postemergence, Rate 500 g/ha; scale of 0 to 10 where 0 is no effect and 10 is complete control
quantity name: Plant response rating, Velvetleaf
// return just the number, without any unit appended

CC(C)N(C(=O)n1oc(=O)n(C(CF)CF)c1=O)c1ccc(F)cc1F :: 7
C=C(Cn1c(=O)on(C(=O)N(c2ccccc2)C(C)C)c1=O)c1cccc(Cl)n1 :: 0
CCC=CCn1c(=O)on(C(=O)N(c2ccccc2)C(C)C)c1=O :: 0

Now look at this entry.
Tell me Plant response rating, Velvetleaf reported for `CCOP(=O)(Cn1c(=O)on(C(=O)N(c2ccc(Cl)cc2)C(C)C)c1=O)OCC`
0
